Overview of recorded pEC50 for various compounds
tested target: human IL-17AA (Homo sapiens)
Sequence (Q16552 24-155): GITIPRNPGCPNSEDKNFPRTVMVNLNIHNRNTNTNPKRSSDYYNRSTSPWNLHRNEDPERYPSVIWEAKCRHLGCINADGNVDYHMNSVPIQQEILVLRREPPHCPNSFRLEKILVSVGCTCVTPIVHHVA
Sequence (Q16552 24-155): as above
method description: IL-8 release assay in human epithelial keratinocytes adult (HEKa)
assay conditions: HEKa cells; 3 ng/mL HEK-human IL-17AA + 10 ng/mL human TNFalpha; 68-72 hours; IL-8 by HTRF; read-out: Rel EC50 IL-8 release assay
To interpret pEC50, take it as minus log10 of a concentration measured in moles per litre.

Example results:
{"compound": "CCOc1cc(-c2nnc(C(C(=O)Nc3ccc(-c4c(C)n[nH]c4C)cc3)C(C3CC3)C3CC3)[nH]2)ccn1 (stereo not shown)", "pEC50": 7.00}
{"compound": "Cc1ncccc1-c1nnc(C(C(=O)Nc2ccc(-c3c(C)n[nH]c3C)cc2)C(C2CC2)C2CC2)[nH]1 (stereo not shown)", "pEC50": 6.74}
{"compound": "Cc1n[nH]c(C)c1-c1ccc(NC(=O)C(c2nnc(-c3ccn(C)c(=O)c3)[nH]2)C(C2CC2)C2CC2)cc1 (stereo not shown)", "pEC50": 6.37}

Param item = Cc1cc(-c2nnc(C(C(=O)Nc3ccc(-c4c(C)n[nH]c4C)cc3)C(C3CC3)C3CC3)[nH]2)ccn1 (stereo not shown) ; retrieve measured pEC50.
6.85

Another compound to check: Cc1n[nH]c(C)c1-c1ccc(NC(=O)C(c2nnc(-c3ccnn3C(C)C)[nH]2)C(C2CC2)C2CC2)cc1 (single isomer, unassigned) [Example 70]
7.57

Likewise for Cc1n[nH]c(C)c1-c1ccc(NC(=O)C(c2nnc(-c3ccnn3CCCO)[nH]2)C(C2CC2)C2CC2)cc1 (stereo not shown) ?
7.23

// next record COc1cc(-c2nnc(C(C(=O)Nc3ccc(-c4c(C)n[nH]c4C)cc3)C3CCC(F)(F)CC3)[nH]2)ccn1 (stereo not shown)
6.19
